target-under-test: recombinant human DHODH (Homo sapiens, UniProt Q02127)
Sequence (Q02127 31-395 limits assumed): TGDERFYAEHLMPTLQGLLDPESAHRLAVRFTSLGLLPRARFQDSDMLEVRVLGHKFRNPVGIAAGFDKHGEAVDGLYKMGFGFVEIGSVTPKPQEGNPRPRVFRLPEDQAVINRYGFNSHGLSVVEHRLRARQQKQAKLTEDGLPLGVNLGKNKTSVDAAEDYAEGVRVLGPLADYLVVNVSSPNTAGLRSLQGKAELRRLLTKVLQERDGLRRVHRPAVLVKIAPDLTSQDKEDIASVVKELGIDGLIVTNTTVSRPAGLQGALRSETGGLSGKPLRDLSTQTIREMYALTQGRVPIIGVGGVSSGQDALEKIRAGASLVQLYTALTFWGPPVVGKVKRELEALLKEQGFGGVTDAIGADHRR
procedure-summary: Endpoint DHODH enzyme assay (coenzyme Q10, DCIP)
Format: biochemical
Design: purchased Prospecbio ENZ-642
cond: compound at 10 µM; Supplementary Table 6, 30,000 compound library
Classify: true (1) when remaining activity at 10 µM is strictly less than 70%; false (0) when remaining activity at 10 µM is not.

A selection of reference data follows.
CCN(CC)c1ccc2cc(-c3nc4ccccc4n3C)c(=O)oc2c1 :: false (0)
Nc1cccc2c1C(=O)c1cccc(NC(=O)c3ccccc3)c1C2=O :: false (0)
COc1ccccc1NC(=O)C1c2ccccc2Oc2ccccc21 :: false (0)

Consider the molecule CC(Cc1ccccc1F)NC1CCCc2c1[nH]c1ccc([N+](=O)[O-])cc21 (centres unmarked) . Is its remaining activity at 10 µM strictly less than 70%?
true (1)

----------
procedure-summary: In vivo pharmacokinetic parameters of (R)-HZ05
Design: species or system C57B1/6N mice
cond: female, C57B1/6N, mouse, plasma, iv, 5 mg kg-1, mice; i.v; read-out: Vd
reported-metric: Vd (L/kg)
Answer with a number only, understood to be in L/kg.

Briefly, Vd measured for O=C(N[C@@H]1CCCc2c1cnn2-c1ccccc1F)c1onc2c1CCCC2 [(R)-HZ05] : 8.3

----------
procedure-summary: In vivo pharmacokinetic parameters of (R)-HZ05
Set-up: species or system C57B1/6N mice
cond: female, C57B1/6N, mouse, plasma, po; mice; p.o, dose 50 mg kg-1
reported-metric: Tmax (min)
Answer with a number only, understood to be in min.

Briefly, Tmax measured for O=C(N[C@@H]1CCCc2c1cnn2-c1ccccc1F)c1onc2c1CCCC2 [(R)-HZ05] : 15

----------
procedure-summary: In vivo pharmacokinetic parameters of (R)-HZ05
Set-up: species or system C57B1/6N mice
cond: female, C57B1/6N, mouse, plasma, iv; mice; i.v, dose 5 mg kg-1; read-out: AUC 0-h
reported-metric: AUC (µM·h)
Answer with a number only, understood to be in µM·h.

Briefly, AUC measured for O=C(N[C@@H]1CCCc2c1cnn2-c1ccccc1F)c1onc2c1CCCC2 [(R)-HZ05] : 2.4

----------
target-under-test: recombinant human DHODH (Homo sapiens, UniProt Q02127)
procedure-summary: Endpoint DHODH enzyme assay (coenzyme Q10, DCIP)
Format: biochemical
Parameters: purchased Prospecbio ENZ-642
cond: compound at 10 µM; Supplementary Table 6, 30,000 compound library
Entries and their remaining activity at 10 µM values follow.
Answer with a number only, understood to be in %.

Consider the reported remaining activity at 10 µM for these compounds:
CCOc1ccc(S(=O)(=O)Nc2cc(Br)c3oc(C)c(C(C)=O)c3c2)cc1 :: 96.8
COc1ccc(Cl)cc1NC1=C(Cl)C(=O)N(c2cccc(C)c2C)C1=O :: 99.6
COCCOC(=O)Nc1nc2sc3c(c2s1)CCCC3 :: 101

Now, please, on to the next compound.
# lookup: `COc1ccc(CNc2ccc(Br)c(C)c2)cc1Br` on recombinant human DHODH (Homo sapiens, UniProt Q02127), remaining activity at 10 µM = 42.5

----------
Entries and their remaining activity at 10 µM values follow.
target-under-test: recombinant human DHODH (Homo sapiens, UniProt Q02127)
procedure-summary: Endpoint DHODH enzyme assay (coenzyme Q10, DCIP)
Format: biochemical
Set-up: purchased Prospecbio ENZ-642
cond: compound at 10 µM; Supplementary Table 6, 30,000 compound library
Answer with a number only, understood to be in %.

Cc1cccn(CC(=O)c2ccc(-c3ccccc3)cc2)c1=N [compound 5120580] :: 19.2
CC(C)(C)c1ccc(C(=O)NC(=S)Nc2cccc([N+](=O)[O-])c2)cc1 [compound 6515740] :: 88.9
Cc1ccccc1C=Nc1ccccc1C(N)=O [compound 5320101, 2-[(2-methylbenzylidene)amino]benzamide] :: 101
CC1CCC(NC2CCCc3c2[nH]c2ccc([N+](=O)[O-])cc32)C1 (stereo not shown) [compound 5781446] :: 60.5
O=c1c(Cl)c(Cl)cnn1-c1ccc(Cl)c(C(F)(F)F)c1 [compound 5344759] :: 98.8

# lookup: CCOc1ccc(NC(=S)NC(=O)c2ccc(C(C)(C)C)cc2)cc1 [compound 6501326] on recombinant human DHODH (Homo sapiens, UniProt Q02127), remaining activity at 10 µM = 84.1

# lookup: O=[N+]([O-])c1ccc2[nH]c3c(c2c1)CCCC3NC1Cc2ccccc2C1 (stereo not shown) [compound 5781444] on recombinant human DHODH (Homo sapiens, UniProt Q02127), remaining activity at 10 µM = 57.9

# lookup: O=C1NC(c2ccc3ccccc3c2)Nc2sc3c(c21)CCCC3 (stereo not shown) [compound 5232020] on recombinant human DHODH (Homo sapiens, UniProt Q02127), remaining activity at 10 µM = 43.5

# lookup: O=C(NN=Cc1ccc(Br)cc1)C1COc2ccccc2O1 (stereo not shown) [compound 5249701] on recombinant human DHODH (Homo sapiens, UniProt Q02127), remaining activity at 10 µM = 100

# lookup: CC(C)Oc1ccc(C(=O)NC(=S)Nc2ccc(N3CCCCC3)cc2)cc1 [compound 6497060] on recombinant human DHODH (Homo sapiens, UniProt Q02127), remaining activity at 10 µM = 101
